# credit: ChEMBL document CHEMBL3414473

- tested.on: PH domain leucine-rich repeat-containing protein phosphatase 1 (Homo sapiens)
- Sequence (O60346 whole entry, the tested form may be a part): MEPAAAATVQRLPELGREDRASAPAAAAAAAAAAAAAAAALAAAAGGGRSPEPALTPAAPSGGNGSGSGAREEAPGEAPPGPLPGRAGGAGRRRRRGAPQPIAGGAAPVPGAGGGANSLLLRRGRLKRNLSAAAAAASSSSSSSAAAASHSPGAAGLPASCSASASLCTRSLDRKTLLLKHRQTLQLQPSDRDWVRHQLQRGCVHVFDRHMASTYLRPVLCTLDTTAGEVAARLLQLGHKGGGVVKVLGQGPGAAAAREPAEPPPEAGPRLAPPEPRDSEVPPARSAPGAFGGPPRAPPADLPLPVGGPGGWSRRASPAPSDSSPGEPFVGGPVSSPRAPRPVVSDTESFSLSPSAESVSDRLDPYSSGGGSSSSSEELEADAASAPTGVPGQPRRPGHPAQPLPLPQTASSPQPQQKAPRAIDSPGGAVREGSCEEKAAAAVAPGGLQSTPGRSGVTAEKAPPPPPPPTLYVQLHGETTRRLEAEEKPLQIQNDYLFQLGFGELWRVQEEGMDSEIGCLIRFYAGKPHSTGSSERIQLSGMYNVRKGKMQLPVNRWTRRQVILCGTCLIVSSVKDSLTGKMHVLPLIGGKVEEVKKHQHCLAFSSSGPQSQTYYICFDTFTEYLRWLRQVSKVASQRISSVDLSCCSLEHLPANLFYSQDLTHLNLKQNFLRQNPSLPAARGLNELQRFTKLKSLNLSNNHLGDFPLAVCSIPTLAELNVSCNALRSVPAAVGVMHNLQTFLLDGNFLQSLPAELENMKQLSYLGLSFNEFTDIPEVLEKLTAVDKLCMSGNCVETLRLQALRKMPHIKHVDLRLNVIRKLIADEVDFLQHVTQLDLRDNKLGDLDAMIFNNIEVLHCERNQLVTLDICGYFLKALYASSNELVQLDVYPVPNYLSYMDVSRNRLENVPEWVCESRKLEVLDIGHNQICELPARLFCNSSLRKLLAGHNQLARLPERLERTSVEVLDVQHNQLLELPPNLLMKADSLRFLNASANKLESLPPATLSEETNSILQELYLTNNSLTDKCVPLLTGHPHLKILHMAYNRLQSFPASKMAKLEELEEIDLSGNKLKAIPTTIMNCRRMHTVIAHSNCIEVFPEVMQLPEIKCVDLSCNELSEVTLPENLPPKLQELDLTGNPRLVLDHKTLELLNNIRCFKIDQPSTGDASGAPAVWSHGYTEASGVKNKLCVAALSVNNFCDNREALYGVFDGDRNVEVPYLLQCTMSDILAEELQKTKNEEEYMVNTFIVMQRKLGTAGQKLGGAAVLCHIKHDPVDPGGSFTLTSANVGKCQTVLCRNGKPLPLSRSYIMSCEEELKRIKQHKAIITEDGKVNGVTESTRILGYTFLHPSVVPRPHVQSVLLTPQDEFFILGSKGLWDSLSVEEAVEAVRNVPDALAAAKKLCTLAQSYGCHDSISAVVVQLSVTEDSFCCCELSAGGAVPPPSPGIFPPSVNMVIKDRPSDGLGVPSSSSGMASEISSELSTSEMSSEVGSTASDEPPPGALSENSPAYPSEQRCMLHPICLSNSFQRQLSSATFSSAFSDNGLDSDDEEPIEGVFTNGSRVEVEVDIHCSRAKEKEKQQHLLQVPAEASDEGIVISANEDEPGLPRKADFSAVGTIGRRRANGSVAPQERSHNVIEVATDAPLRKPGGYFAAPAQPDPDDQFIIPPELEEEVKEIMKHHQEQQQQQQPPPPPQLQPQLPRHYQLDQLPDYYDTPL
- experimental.details: Inhibition of PHLPP1-mediated reduction in phosphorylation of Akt at Ser473 in human PC3 cells after 24 hrs by Western blot analysis
- Type: cell-based
- condition.parameters: PC-3
Active and inactive are the calls of the source. No cut-off for these calls is given here.
Please state which outcome applies, choosing from active, inactive

Illustrative cases are given below, each with its answer.
INSERT INTO measurements (molecule, tested_on, class) VALUES
  ('CC(C)CCCC1(C)CCc2cc(S(N)(=O)=O)cc(F)c2O1 (centres undefined)', 'PH domain leucine-rich repeat-containing protein phosphatase 1 (Homo sapiens)', 'inactive'),
  ('CC(C)CCCC1(C)CCc2cc(S(N)(=O)=O)cc(Br)c2O1 (centres undefined)', 'PH domain leucine-rich repeat-containing protein phosphatase 1 (Homo sapiens)', 'active'),
  ('Cc1c(O)cc2c(c1C)O[C@](C)(CCCC(C)C)CC2', 'PH domain leucine-rich repeat-containing protein phosphatase 1 (Homo sapiens)', 'active');

Let us examine a further case.
Please indicate how the test categorized Cc1c(S(N)(=O)=O)cc2c(c1C)OC(C)(CCCC(C)C)CC2 (centres undefined) . active

###

- tested.on: PH domain leucine-rich repeat-containing protein phosphatase 1 (Homo sapiens)
- experimental.details: Inhibition of PHLPP1-mediated reduction in phosphorylation of Akt at Ser473 in human LNCAP cells after 24 hrs by Western blot analysis
- Format: cell-based
The source made the active and inactive calls. The calls are words filed in the database; no cut-off is given here.
Give one outcome, nothing more. List: true for active, false for inactive

Please review the following examples before continuing.
INSERT INTO assay_data (compound, class) VALUES
  ('Cc1c(S(N)(=O)=O)cc2c(c1C)OC(C)(CCCC(C)C)CC2 (centres undefined)', 'true'),
  ('CC(C)CCCC1(C)CCc2cc(S(N)(=O)=O)cc(F)c2O1 (centres undefined)', 'false'),
  ('Cc1c(O)cc2c(c1C)O[C@](C)(CCCC(C)C)CC2', 'true');

Please find the next compound below.
Dear all, I need the recorded test outcome for CC(C)CCCC1(C)CCc2cc(S(N)(=O)=O)cc(Br)c2O1 (centres undefined) , thank you. true

###

# key: entry, value: IC50
- System: LNCaP
- experimental.details: Antiproliferative activity against human LNCAP cells assessed as suppression of cell viability after 24 hrs by MTT assay
- Assay type: functional, cell-based
Report as a plain number; the unit µM is understood.

INSERT INTO assay_data (compound, unit_abbrev, experimental_value) VALUES
  ('CC(C)CCCC1(C)CCc2cc(O)cc(O)c2O1 (stereo not drawn)', 'µM', 27),
  ('Cc1c(S(N)(=O)=O)cc2c(c1C)OC(C)(CCCC(C)C)CC2 (stereo not drawn)', 'µM', 3),
  ('CC(C)CCCC1(C)CCc2cc(O)cc(C(F)(F)F)c2O1 (stereo not drawn)', 'µM', 8);

# input compound: Cc1cc(O)cc2c1OC(C)(CCCC(C)C)CC2=O (stereo not drawn) ; wanted: its IC50 18

Try CC(C)CCCC1(C)CCc2cc(O)ccc2O1 (stereo not drawn) next. 10

Same for CC(C)CCCC1(C)CCc2ccc(O)c(O)c2O1 (stereo not drawn) 23

Next compound up: CC(C)CCCC1(C)CCc2cc(S(N)(=O)=O)cc(F)c2O1 (stereo not drawn) 20

# iterate: CC(C)CCCC1(C)CCc2c(O)cccc2O1 (stereo not drawn) 11

Note, next up: CC(C)CCCC1(C)CCc2cc(O)cc(Br)c2O1 (stereo not drawn) 8

Consider next the compound Cc1cc(O)cc2c1NC(C)(CCCC(C)C)CC2 (stereo not drawn) in the same way. 10

Moving on to CC(C)CCCC1(C)CCc2cc(S(N)(=O)=O)cc(Br)c2O1 (stereo not drawn) 4.5

What about this compound? COc1cc(O)cc2c1OC(C)(CCCC(C)C)CC2 (stereo not drawn) 26

How about this compound: Cc1cc(O)cc2c1OC(C)(CCCC(C)C)CC2 (stereo not drawn) 7.5

What would you report for CC(C)CCCC1(C)CCc2cc(O)cc(F)c2O1 (stereo not drawn) ? 9
